System: MDA-MB-468 breast
experiment summary: NCI tumour cell line growth inhibition, 48 h; in the data active = GI50 below about 0.43 µM; inactive = the rest
Could you please pick one outcome from this set? active, inactive

Completed entries (count: 3):
>>> assigned_category("O=C(CSSCC(=O)c1ccc(Cl)cc1)c1ccc(Cl)cc1")
"inactive"
>>> assigned_category("O=C1c2c(c3c4cc(F)ccc4oc3c3[nH]c4ccccc4c23)C(=O)N1O")
"inactive"
>>> assigned_category("CNC(=O)c1c(NC(=O)c2ccccc2C(F)(F)F)sc2c1CCC(=O)C2")
"inactive"

[ask] Called result for "Nc1[nH]nc(Nc2ccccc2)c1-c1nc2ccccc2s1"
[reply] inactive

[ask] Then "O=[N+]([O-])c1ccc(Sc2cccc[n+]2[O-])c2nonc12" ?
[reply] inactive

---

Can you tell me TGI for the items I'm about to list?
Tested on: MDA-MB-468 breast
experiment summary: NCI tumour cell line growth inhibition, 48 h

Consider the worked cases shown below.
>>> observed_measurement("O=C1/C(=C/c2ccc(F)cc2)COc2ccc(O)c(O)c21")
"5.6 µM"
>>> observed_measurement("CN(C)Cc1ccc(NC(=O)c2cncc(C#Cc3cnc(N)c4ncccc34)c2)cc1C(F)(F)F")
"3.21 µM"
>>> observed_measurement("CN(C)S(=O)(=O)c1cccc(C(=O)Nc2nc(-c3ccc(F)c(F)c3)cs2)c1")
"97.5 µM"
>>> observed_measurement("CN1CCN(C2=C(Cl)C(=O)c3ccccc3C2=O)CC1")
"2.61 µM"
>>> observed_measurement("O=C(O)CCCN1C(=O)/C(=C/C(Cl)=C/c2ccccc2)SC1=S")
"3.29 µM"
>>> observed_measurement("COc1ccc(/C=C\\c2cc(OC)c(OC)c(OC)c2)cc1NC(=O)/C=C/c1ccc(OC)c(OC)c1")
"> 100 µM"
>>> observed_measurement("O=[N+]([O-])c1ccccc1/C=N\\NC(=S)N/N=C/c1ccccc1[N+](=O)[O-]")
"21.3 µM"
>>> observed_measurement("O=[N+]([O-])c1ccc(Sc2cccc[n+]2[O-])c2nonc12")
"20.7 µM"

[ask] May I ask what TGI has been recorded for NC(CSC(c1ccccc1)(c1ccccc1)c1ccccc1)C(=O)O (centres undefined) ?
[reply] 6.24 µM

---

Tested on: MDA-MB-468 breast
experiment summary: NCI tumour cell line growth inhibition, 48 h; in the data active means GI50 below about 0.43 µM; inactive means the rest
Could you please pick one outcome from this set? 1 for active, 0 for inactive

Completed entries (count: 4):
>>> assigned_category("O=C(COc1ccc(NC(=O)Nc2ccc(Cl)c(Cl)c2)cc1)N=Nc1c(O)[nH]c2ccc(Cl)cc12")
0
>>> assigned_category("COc1cc2c(O[C@@H]3OC[C@H](OC(C)=O)[C@H](OC(C)=O)[C@H]3O)c3c(c(-c4ccc5c(c4)OCO5)c2cc1OC)C(=O)OC3")
0
>>> assigned_category("NC(CSC(c1ccccc1)(c1ccccc1)c1ccccc1)C(=O)O (stereo not given)")
1
>>> assigned_category("O=[N+]([O-])c1ccccc1/C=N\\NC(=S)N/N=C/c1ccccc1[N+](=O)[O-]")
0

We next turn to a different compound, shown below.
[ask] Called result for "COc1ccc(Cn2cc3c(c2-c2ccccc2)CCc2cnoc2-3)cc1"
[reply] 1
